# target or test system: T1, human GITR (human, UniProt Q9Y5U5 26-241)
# T1 sequence: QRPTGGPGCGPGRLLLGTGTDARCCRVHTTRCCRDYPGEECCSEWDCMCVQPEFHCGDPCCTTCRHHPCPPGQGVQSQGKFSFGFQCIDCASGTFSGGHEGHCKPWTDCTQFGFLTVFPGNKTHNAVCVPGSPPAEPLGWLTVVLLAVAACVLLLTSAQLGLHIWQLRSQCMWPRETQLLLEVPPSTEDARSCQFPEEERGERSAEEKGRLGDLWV
# assay procedure: cell-based or functional assay
measure: Proliferation (Fold over CD3) (fold over CD3)
Answer with a number only, understood to be in fold over CD3.

{"binder": "9H6v2 (antibody, human IgG1, kappa, V domains shown, Engineered variant; also called Ab45; SS-16944) VH: QVQLVESGGGVVQPGRSLRLSCVASGFTFSSYGMHWIRQAPGKGLEWVAVIWYEGSNKYYADSVKGRFTISRDNSKNTLYLQMNSLRAEDTAVYYCARGGRLGKDYYSGMDVWGQGTTVTVSS VL: DIQMTQSPSSLSASVGDRVTITCRASQGIRNDLGWYQQKPGKAPKLLIYATSSLQSGVPSRFSGSGSGTEFTLTISSLQPEDFATYYCLQHNTYPWTFGQGTKVEIKR", "Proliferation (Fold over CD3) (fold over CD3)": 2.2}

Next:
Prompt line: For the binder 9H6v4 (antibody, human IgG1, kappa, V domains shown, Engineered variant; also called Ab47; SS-16945) VH: QVQLVESGGGVVQPGRSLRLSCVASGFTFSSYGMHWIRQAPGKGLEWVAVIWYEGSNKYYADTVKGRFTISRDNSKNTLYLQMNSLRAEDTAVYYCARGGRLGKDYYSGMDVWGQGTTVTVSS VL: DIQMTQSPSSLSASVGDRVTITCRASQGIRNDLGWYQQKPGKAPKRLIYATSSLQSGVPSRFSGSGSGTEFTLTISSLQPEDFATYYCLQHNTYPWTFGQGTKVEIKR , give its reported Proliferation (Fold over CD3).
Response line: 3.3
